Molecular target: UniProtKB P78527
pIC50: −log10 of the molar value.
measureName: pIC50

Known results for molecules:
OCc1ccnc(NCC2CCN(c3nc(N4CCOCC4)cc4ncccc34)CC2)n1 [Example 116] : 6.91
c1cnnc(NCC2CCN(c3nc(N4CCOCC4)cc4ncccc34)CC2)c1 [Parent compound 131] : 7.20

I. c1cnc(NC2CCC3CN(c4nc(N5CCOCC5)cc5ncccc45)CC32)nc1 (centres unmarked) [Example 13]
II. CNc1cnc2cc(N3CCOCC3)nc(O[C@H]3CC[C@@H](n4ccnc4)CC3)c2c1 [Parent compound 171]
III. Oc1ccnc(NCC2CCN(c3nc(N4CCOCC4)cc4ncccc34)CC2)n1 [Example 113]
IV. c1cnc(NCCC2CCCN(c3nc(N4CCOCC4)cc4ncccc34)C2)nc1 (centres unmarked) [Example 23]
stdin: Sort these molecules on pIC50 so the largest reading comes first. # format: label list in the order the request specifies
stdout: II, I, III, IV

I. c1cnc(NCC2CCN(c3nc(N4CCOCC4)cc4ncccc34)C2)nc1 (centres unmarked) [Example 11]
II. N#Cc1cccnc1NCC1CCN(c2nc(N3CCOCC3)cc3ncccc23)CC1 [Example 115]
stdin: // returns I or II , whichever has the lower pIC50 The response must carry the label of the picked entry.
stdout: II
(II: 6.92, I: 7.30)

====

What follows is a record of pIC50 for DNA-PK kinase (Homo sapiens).
pIC50: −log10 of the molar value.
measureName: pIC50

Previously resolved entries follow.
O=C(Nc1ncccn1)N1CCN(c2nc(N3CCOCC3)cc3ncccc23)CC1 : 6.63
c1cnc(NC2CCCN(c3nc(N4CCOCC4)cc4ncccc34)C2)nc1 (centres unmarked) : 6.31
Nc1ccnc(NCC2CCN(c3nc(N4CCOCC4)cc4ncccc34)CC2)n1 : 6.90
COc1ccc(COc2nc(N3CCOCC3)cc3ncccc23)cc1 : 6.62
c1cnc(N2CCC23CCN(c2nc(N4CCOCC4)cc4ncccc24)C3)nc1 (centres unmarked) : 6.46

P. Cc1nnc([C@H]2CC[C@@H](Oc3nc(N4CCOCC4)cc4ncccc34)CC2)[nH]1
Q. Cn1ncnc1[C@H]1CC[C@@H](Oc2nc(N3CCOCC3)cc3ncccc23)CC1
R. C[C@H]1CN(c2ncn[nH]2)CC[C@H]1Oc1nc(N2CCOCC2)cc2ncccc12
stdin: Sort the 3 compounds by pIC50; largest first, smallest last. Your answer should be the labels, listed in the requested order.
stdout: P, Q, R
(P: 9.00, Q: 7.92, R: 6.90)

====

Molecular target: UniProt P78527
measureName: IC50 (nM)

A. O=C(NC1CCN(c2nc(N3CCOCC3)cc3ncccc23)CC1)c1ncccn1
B. c1cnc2cc(N3CCOCC3)nc(O[C@H]3CC[C@@H](n4nccn4)CC3)c2c1
C. Oc1cnc2cc(N3CCOCC3)nc(O[C@H]3CC[C@@H](c4cscn4)CC3)c2c1
D. c1cnc2cc(N3CCOCC3)nc(N[C@H]3CC[C@@H](c4nnc[nH]4)CC3)c2c1
stdin: List the 4 entries from lowest IC50 to highest IC50 value. # the answer lists labels in the order requested
stdout: C, B, D, A
(C: 4 nM, B: 10 nM, D: 27 nM, A: 274 nM)

====

Molecular target: Phospho-DNA-PK in FaDu Cells (Homo sapiens, UniProt P78527)
Construct: host or cells: FaDu
Assay: Effect of compounds on phospho-DNA-PK in FaDu cells (MesoScale sandwich immunoassay)
Type: cell-based
Conditions: 1 hour pre-incubation, 1 μg/ml Neocarzinostatin 2 hours, averaged values, read-out: MSD FaDu IC50
pIC50: −log10 of the molar value.
measureName: pIC50

Example results:
Cc1noc([C@H]2CC[C@@H](Oc3nc(N4CCOCC4)cc4ncccc34)CC2)n1 : 5.86
c1cnc2cc(N3CCOCC3)nc(N3CCC(CNc4ccncn4)CC3)c2c1 : 5.50
c1cnc(N2CC(COc3nc(N4CCOCC4)cc4ncccc34)C2)nc1 : 5.86
c1cnc2cc(N3CCOCC3)nc(O[C@H]3CC[C@@H](n4nccn4)CC3)c2c1 : 6.29
C[C@H]1CN(c2ncn[nH]2)CC[C@@H]1Oc1nc(N2CCOCC2)cc2ncccc12 (single isomer, unassigned) : 5.00

a. c1cncc(NCC2CCN(c3nc(N4CCOCC4)cc4ncccc34)CC2)c1
b. c1cnc2cc(N3CCOCC3)nc(O[C@H]3CC[C@@H](c4nnn[nH]4)CC3)c2c1
c. Oc1cnc2cc(N3CCOCC3)nc(O[C@H]3CC[C@@H](c4nccs4)CC3)c2c1
stdin: # rank by pIC50, ascending (min first) Enter labels, ranked according to the request.
stdout: a, b, c

====

Biological target: Phospho-DNA-PK in FaDu Cells (Homo sapiens)
Experiment: Effect of compounds on phospho-DNA-PK in FaDu cells (MesoScale sandwich immunoassay)
Details: 1 hour pre-incubation, 1 μg/ml Neocarzinostatin 2 hours, averaged values, read-out: MSD FaDu IC50
pIC50: −log10 of the molar value.
measureName: pIC50

Use these answered entries as a reference point.
c1cnc2cc(N3CCOCC3)nc(O[C@H]3CC[C@@H](c4ncc[nH]4)CC3)c2c1 [Example 75] : 7.24
COc1ccnc(NCC2CCN(c3nc(N4CCOCC4)cc4ncccc34)CC2)n1 [Example 111] : 5.67
Cc1cc(C(N)=O)nc(NCC2CCN(c3nc(N4CCOCC4)cc4ncccc34)CC2)n1 [Example 101] : 5.67
c1cnc(NC2CCN(c3nc(N4CCOCC4)cc4ncccc34)CC2)nc1 [Example 16] : 4.73

P. c1cnc2cc(N3CCOCC3)nc(O[C@H]3C[C@@H](c4ncc[nH]4)C3)c2c1 [Example 87]
Q. NC(=O)[C@H]1CC[C@@H](Oc2nc(N3CCOCC3)cc3ncccc23)CC1 [Example 3]
R. Oc1cnc2cc(N3CCOCC3)nc(O[C@H]3CC[C@@H](c4cscn4)CC3)c2c1 [Example 167]
stdin: Hey, quick one: sort these by pIC50, low to high? A ranking is expressed here by listing the labels in the requested order.
stdout: P, Q, R
(P: 5.94, Q: 6.44, R: 6.66)

a. c1cnc2cc(N3CCOCC3)nc(OC[C@H]3CC[C@@H](c4ncn[nH]4)CC3)c2c1 [Example 73]
b. Fc1c[nH]c([C@H]2CC[C@@H](Oc3nc(N4CCOCC4)cc4ncccc34)CC2)n1 [Example 76]
stdin: Hey, which is lower on measured pIC50, a or b ? Respond with the label that goes with your answer.
stdout: a

====

Biological target: DNA-PK kinase (Homo sapiens)
measureName: IC50 (nM)

c1cnc(NCC2CN(c3nc(N4CCOCC4)cc4ncccc34)C2)nc1 : 36
COc1cccnc1NCC1CCN(c2nc(N3CCOCC3)cc3ncccc23)CC1 : 457
c1ccc(NCC2CCN(c3nc(N4CCOCC4)cc4ncccc34)CC2)nc1 : 185

I. c1cnc2cc(N3CCOCC3)nc(O[C@H]3CC[C@@H](c4nnn[nH]4)CC3)c2c1
II. C[C@@H]1COCCN1c1cc2ncccc2c(O[C@H]2CC[C@@H](c3nc[nH]n3)CC2)n1
III. O=C(O)c1ccnc(NCC2CCN(c3nc(N4CCOCC4)cc4ncccc34)CC2)n1
IV. c1cnc(NCCC2CN(c3nc(N4CCOCC4)cc4ncccc34)C2)nc1
V. [2H]C1([2H])OC([2H])([2H])C([2H])([2H])N(c2cc3ncccc3c(O[C@H]3CC[C@@H](c4nc[nH]n4)CC3)n2)C1([2H])[2H]
stdin: Parameters: sort_field (IC50), sort_dir (desc). Provide your answer as the labels ordered per the instruction.
stdout: II, IV, III, I, V
(II: 261 nM, IV: 164 nM, III: 88 nM, I: 3 nM, V: 2 nM)

====

Molecular target: Phospho-DNA-PK in FaDu Cells (Homo sapiens, UniProt P78527)
Assay: Effect of compounds on phospho-DNA-PK in FaDu cells (MesoScale sandwich immunoassay)
Conditions: 1 hour pre-incubation, 1 μg/ml Neocarzinostatin 2 hours, averaged values, read-out: MSD FaDu IC50
pIC50: −log10 of the molar value.
measureName: pIC50

Oc1cnc2cc(N3CCOCC3)nc(O[C@H]3CC[C@@H](n4cc(F)cn4)CC3)c2c1 [Example 163] : 6.87

A. Fc1cnc(NCC2CCN(c3nc(N4CCOCC4)cc4ncccc34)CC2)nc1 [Example 104]
B. c1cnc2cc(N3CCOCC3)nc(OCC3CCN(c4ncn[nH]4)CC3)c2c1 [Parent compound 154]
stdin: Smaller pIC50 value, A vs B ? # answer = label of selected item
stdout: A

1. N#Cc1ccnc(NCC2CCN(c3nc(N4CCOCC4)cc4ncccc34)CC2)n1 [Example 108]
2. c1cnc2cc(N3CCOCC3)nc(O[C@H]3CC[C@@H](n4ccnc4)CC3)c2c1 [Example 77]
3. CNc1cnc2cc(N3CCOCC3)nc(O[C@H]3CC[C@@H](n4ccnc4)CC3)c2c1 [Parent compound 171]
stdin: Order the records so the highest pIC50 appears first and the lowest last. Form field (ranking): labels in requested order.
stdout: 2, 3, 1

A. N#Cc1cccc(-c2ccnc(NCC3CCN(c4nc(N5CCOCC5)cc5ncccc45)CC3)n2)n1 [Example 119]
B. c1ccc(NCC2CCN(c3nc(N4CCOCC4)cc4ncccc34)CC2)nc1 [Example 122]
stdin: Out of A and B , name the one with the higher pIC50. Indicate which entry you chose by stating its label.
stdout: A
(A: 5.62, B: 5.36)
